- ASSAY REMARKS: Half life of the compound in phosphate buffer at pH 4 by HPLC analysis
- Assay type: physicochemical
READOUT TYPE: half-life

// solved cases for half-life follow
[
  {
    "MOL": "COc1ccc([C@H]2[C@H](c3ccccc3)C(=O)N2c2cc(OC)c(OC)c(OC)c2)cc1I",
    "half-life": "15 h"
  },
  {
    "MOL": "COc1ccc([C@H]2[C@H](Oc3ccccc3)C(=O)N2c2cc(OC)c(OC)c(OC)c2)cc1Cl",
    "half-life": "> 15 h"
  }
]

Field: next compound
Name the recorded half-life for COc1ccc([C@H]2[C@H](N)C(=O)N2c2cc(OC)c(OC)c(OC)c2)cc1Cl .
> 24 h

Data provenance is ChEMBL document CHEMBL4680165.
